All values here come from patent EP4682162A1.

- targetOrTestSystem: T1, labeled peptide-MHC (HLA-A*02:01) tetramer (…-HLA-A*02:01 tetramer) (human)
- T1 construct: Labeled tetramer used for flow cytometry staining; also called pMHC; pMHC tetramer
- experimentNotes: tetramer staining of sorted T cell clones, flow cytometry

| binder | binding result |
| --- | --- |
| nwTCR-3274 (TCR, V domains shown, TCR on T cells) V domain 1: QKEVEQNSGPLSVPEGAIASLNCTYSDRGSQSFFWYRQYSGKSPELIMSIYSNGDKEDGRFTAQLNKASQYVSLLIRDSQPSDSATYLCAVVSGGYNKLIFGAGTRLAVHP V domain 2: EPEVTQTPSHQVTQMGQEVILRCVPISNHLYFYWYRQILGQKVEFLVSFYNNEISEKSEIFDDQFSVERPDGSNFTLKIRSTKLEDSAMYFCASSEGWGGTEAFFGQGTRLTVVE | binds |
| nwTCR-2970 (TCR, V domains shown, TCR on T cells) V domain 1: QQPVQSPQAVILREGEDAVINCSSSKALYSVHWYRQKHGEAPVFLMILLKGGEQKGHDKISASFNEKKQQSSLYLTASQLSYSGTYFCGTEFRNDYKLSFGAGTTVTVRA V domain 2: EAQVTQNPRYLITVTGKKLTVTCSQNMNHEYMSWYRQDPGLGLRQIYYSMNVEVTDKGDVPEGYKVSRKEKRNFPLILESPSPNQTSLYFCASSPGTGGYGYTFGSGTRLTVVE | binds |
| nwTCR-2316 (TCR, V domains shown, TCR on T cells) V domain 1: TQLLEQSPQFLSIQEGENLTVYCNSSSVFSSLQWYRQEPGEGPVLLVTVVTGGEVKKLKRLTFQFGDARKDSSLHITAAQPGDTGLYLCAGVDNYGQNFVFGPGTRLSVLP V domain 2: DAGVIQSPRHEVTEMGQEVTLRCKPISGHNSLFWYRQTMMRGLELLIYFNNNVPIDDSGMPEDRFSAKMPNASFSTLKIQPSEPRDSAVYFCASSIAALGFGELFFGEGSRLTVLE | binds |
